Hello, the source for this data is patent US20240384268A1, in case you need it.

# target-system: TLR8 (Homo sapiens, UniProt Q9NR97)
# Sequence (Q9NR97 27-1041): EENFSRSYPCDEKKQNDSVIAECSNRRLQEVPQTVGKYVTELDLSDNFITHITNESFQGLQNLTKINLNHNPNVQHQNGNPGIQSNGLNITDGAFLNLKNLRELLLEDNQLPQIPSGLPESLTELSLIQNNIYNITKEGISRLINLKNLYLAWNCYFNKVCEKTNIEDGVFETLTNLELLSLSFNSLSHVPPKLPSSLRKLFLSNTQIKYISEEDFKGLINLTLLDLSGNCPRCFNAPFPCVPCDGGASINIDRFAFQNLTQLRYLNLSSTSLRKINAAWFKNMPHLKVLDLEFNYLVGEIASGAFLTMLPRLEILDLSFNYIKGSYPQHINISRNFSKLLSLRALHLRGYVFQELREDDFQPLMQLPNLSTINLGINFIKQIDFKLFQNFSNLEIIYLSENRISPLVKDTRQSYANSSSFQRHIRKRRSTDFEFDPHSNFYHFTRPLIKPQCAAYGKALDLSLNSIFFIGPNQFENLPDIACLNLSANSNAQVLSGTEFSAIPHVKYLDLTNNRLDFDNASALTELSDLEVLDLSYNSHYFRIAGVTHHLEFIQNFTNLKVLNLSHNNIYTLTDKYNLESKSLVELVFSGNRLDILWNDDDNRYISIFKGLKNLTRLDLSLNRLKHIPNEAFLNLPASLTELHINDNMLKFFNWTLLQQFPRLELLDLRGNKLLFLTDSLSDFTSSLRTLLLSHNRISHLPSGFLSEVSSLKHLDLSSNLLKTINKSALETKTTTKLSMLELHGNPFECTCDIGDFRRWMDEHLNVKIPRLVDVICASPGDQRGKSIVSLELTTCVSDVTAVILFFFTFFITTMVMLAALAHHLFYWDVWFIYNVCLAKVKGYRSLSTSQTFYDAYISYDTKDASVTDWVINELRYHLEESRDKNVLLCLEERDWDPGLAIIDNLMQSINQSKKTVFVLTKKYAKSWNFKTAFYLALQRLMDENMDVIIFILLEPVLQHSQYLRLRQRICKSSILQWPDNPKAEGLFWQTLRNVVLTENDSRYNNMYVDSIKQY
# assay-text: HEK-TLR8 NF-κB-luciferase reporter, R848 or Motolimod stimulation (potentiation or inhibition)
# Type: cell-based
# Design: expressed in transfected cells; host or cells: 293XLhTLR8 (HEK293)
# condition-description: ASO 500 nM; relative to R848 only
# Description: In such examples, potentiation of TLR8 activity can be identified by observation of an overall increased TLR8 response of the cell population, or a higher proportion of cells having TLR8-positive activity as compared to a negative control condition in which cells are treated with TLR8 agonist in the absence of the oligonucleotide (or in the presence of an appropriate control non-potentiating agent). […] TLR8 activity can also be analysed by measuring cytokine levels, for example by ELISA. […]
Can you tell me TLR8 500 nM (averaged NF-κB-Luciferase level relative to R848 condition, fold increase) for the items I'm about to list?
Would you mind answering with just the numeric figure?

Ask: Recall and state the measured TLR8 500 nM (averaged NF-κB-Luciferase level relative to R848 condition, fold increase) for GGCTGGAATCCGAGTT (antisense; LNA-modified, pattern not given here) [EGFR-4705 LNA KL] .
Reply: 0.577

Ask: Recall and state the measured TLR8 500 nM (averaged NF-κB-Luciferase level relative to R848 condition, fold increase) for CCATCCATGAGGTCCT (antisense; LNA-modified, pattern not given here) [CTNN2B-2545 LNA V1] .
Reply: 1.169

Ask: Recall and state the measured TLR8 500 nM (averaged NF-κB-Luciferase level relative to R848 condition, fold increase) for CTTGGCTTCGTGGAGC (antisense; LNA-modified, pattern not given here) [MB21D1-520 LNA V1] .
Reply: 0.594

Ask: Recall and state the measured TLR8 500 nM (averaged NF-κB-Luciferase level relative to R848 condition, fold increase) for ACACTTCGTGGGGTCC (antisense; LNA-modified, pattern not given here) [HPRT LNA-665 V1] .
Reply: 1.029

Ask: Recall and state the measured TLR8 500 nM (averaged NF-κB-Luciferase level relative to R848 condition, fold increase) for CCTCCCATCTCCTTCA (antisense; LNA-modified, pattern not given here) [HPRT LNA-326 V1] .
Reply: 6.759

Ask: Recall and state the measured TLR8 500 nM (averaged NF-κB-Luciferase level relative to R848 condition, fold increase) for GTGATGGCCTCCCATC (antisense; LNA-modified, pattern not given here) [HPRT LNA-333 V1] .
Reply: 1.112

Ask: Recall and state the measured TLR8 500 nM (averaged NF-κB-Luciferase level relative to R848 condition, fold increase) for GGTCATTACAATAGCT (antisense; LNA-modified, pattern not given here) [HPRT LNA-475 KL] .
Reply: 1.381

Ask: Recall and state the measured TLR8 500 nM (averaged NF-κB-Luciferase level relative to R848 condition, fold increase) for ACGTTCAGTCCTGTCC (antisense; LNA-modified, pattern not given here) [HPRT LNA-294 V1] .
Reply: 0.493

Ask: Recall and state the measured TLR8 500 nM (averaged NF-κB-Luciferase level relative to R848 condition, fold increase) for GCAGGCTCAGTGATGT (antisense; LNA-modified, pattern not given here) [CTNN2B-1642 LNA V1] .
Reply: 1.440

Ask: Recall and state the measured TLR8 500 nM (averaged NF-κB-Luciferase level relative to R848 condition, fold increase) for GTTCAGTCCTGTCCAT (antisense; LNA-modified, pattern not given here) [HPRT LNA-292 V1] .
Reply: 4.129

Ask: Recall and state the measured TLR8 500 nM (averaged NF-κB-Luciferase level relative to R848 condition, fold increase) for AGCTTCGAGGCCCCAG (antisense; LNA-modified, pattern not given here) [MB21D1-616 LNA V1] .
Reply: 0.865

Ask: Recall and state the measured TLR8 500 nM (averaged NF-κB-Luciferase level relative to R848 condition, fold increase) for AGATTTCAGAGCAGCT (antisense; LNA-modified, pattern not given here) [EGFR-4885 LNA KL] .
Reply: 0.770

Ask: Recall and state the measured TLR8 500 nM (averaged NF-κB-Luciferase level relative to R848 condition, fold increase) for GATGGCCTCCCATCTC (antisense; LNA-modified, pattern not given here) [HPRT LNA-331 V1] .
Reply: 0.186

Ask: Recall and state the measured TLR8 500 nM (averaged NF-κB-Luciferase level relative to R848 condition, fold increase) for CCCACTTGGCAGACCA (antisense; LNA-modified, pattern not given here) [CTNN2B-1576 LNA V1] .
Reply: 1.865
